In this section, each of the compounds is paired with its reported The number of cells in which neurites appeared/Total number of cells.
# Tested on: Mouse neuroblastoma cells NS-20Y
# Procedure Details: Neurite appearance in mouse neuroblastoma NS-20Y cells (Table 8);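 also: cells grown in polyornithine-coated dishes, with timing counted from the start of culture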
# Format: cell-based
# Assay Conditions: 24 hour; 0.2 mM

Field: example entries. Status: answers known.
Smiles Text: O=C1CCCN1c1ccnc(N2CCc3ccccc3C2)n1
Endpoint Value: 5/50

Smiles Text: O=C1CCCN1c1ccnc(N2CCCCC2)n1
Endpoint Value: 15/50

Smiles Text: O=C1CCCN1c1ccnc(N2CCSCC2)n1
Endpoint Value: 8/50

Smiles Text: O=C(c1ccccc1)N1CCN(c2ccnc(N3CCCCC3)n2)CC1
Endpoint Value: 3/50

Tell me the measured The number of cells in which neurites appeared/Total number of cells of CN(C(=O)C12CC3CC(CC(C3)C1)C2)c1ccnc(N2CCC(c3ccccc3)CC2)n1 , please.
2/50
